- Tested on: SNB-78
- METHOD: NCI tumour cell line growth inhibition, 48 h
Calls of active or inactive are those of the source. No stated cut-off is given here; in the data, active = GI50 up to about 1.1 µM and inactive = higher.
MEASURED_ATTRIBUTE: GI50

>>> print(df.to_string())
                                    compound  measured_attribute                result
 0                CCOc1ccc(NC(=O)C(=O)NO)cc1                GI50   > 100 µM (inactive)
 1  COc1ccc(/C=C2/C[N+](C)(C)C/C(=C/c3ccc(OC)cc3)C2=O)cc1                GI50    38.5 µM (inactive)
 2       CCN(CC)CCNC(=O)c1cccc2nc3ccccc3nc12                GI50    21.4 µM (inactive)
 3  Clc1ccc(C2=NOC3C4CCC(C4)C23)cc1 (stereo not drawn)                GI50   > 100 µM (inactive)
 4  COC(=O)C(=O)C(CC(=O)Nc1ccc(C)cc1)C(=O)OC (stereo not drawn)                GI50   > 100 µM (inactive)
 5  C[S+]([O-])c1ccc(COP(N)(=O)N(CCCl)CCCl)cc1 (stereo not drawn)                GI50   > 100 µM (inactive)
 6  CC1=C(C(=O)NCc2ccccc2)C(c2ccccc2C)C(C(=O)NCc2ccccc2)=C(C)N1                GI50    33.6 µM (inactive)
 7               Sc1nnc(COc2ccc(Cl)cc2)[nH]1                GI50   > 100 µM (inactive)
 8  NC(=O)c1ccccc1NC(=O)C(=O)C(C(=O)c1ccc2ccccc2c1)C1OC(=O)c2ccccc21 (stereo not drawn)                GI50    10.5 µM (inactive)
 9  CC1=NN(C(=O)c2ccccc2O)C(=O)/C1=C/c1cccc([N+](=O)[O-])c1                GI50   > 100 µM (inactive)
10  COCC12CC(CC1=O)C1C2ON2c3ccccc3C(=O)C12c1ccccc1 (stereo not drawn)                GI50    68.7 µM (inactive)
11                  NC(=O)n1ncc(Cl)c(Cl)c1=O                GI50   > 100 µM (inactive)
12  CC(Oc1ccc(OCC2CCCCC2)cc1)C(=O)NCCO (stereo not drawn)                GI50   > 100 µM (inactive)
13  C=C1c2[nH]c3ccccc3c2CC(C(=O)O)N1C(O)c1ccc(S(=O)(=O)O)cc1 (stereo not drawn)                GI50   > 100 µM (inactive)
14                  C=C(C)[C@@H]1CC=C(CO)CC1                GI50     200 µM (inactive)
15    COc1ccc(/C(Cl)=C(\C=O)c2ccc(OC)cc2)cc1                GI50   > 100 µM (inactive)
16          COc1cc(C(=O)O)cc2c1[nH]c1ccccc12                GI50    > 25 µM (inactive)
17           O=C1C[C@@H]2CCCC[C@@H]2C12SCCS2                GI50   > 100 µM (inactive)
18  CC(=O)C1=CSC2[C@H](NC(=O)Cc3ccccc3)C(=O)N2C1C(=O)OC(c1ccccc1)c1ccccc1 (stereo partly drawn)                GI50   > 100 µM (inactive)
19  CC1OC(=O)N(CCCC=C2SCCCS2)C1=O (stereo not drawn)                GI50   > 100 µM (inactive)
20  c1ccc2c(CNCCCCCCNCc3cccc4ccccc34)cccc2c1                GI50    9.44 µM (inactive)
21            O=c1c2cccc3cccc(c4n1CCCN=4)c32                GI50   > 100 µM (inactive)
22  CC(C)=CCC/C(=C/CC/C(C)=C/CCc1ccoc1)C(=O)O                GI50   > 100 µM (inactive)
23  CCc1nc2ccc(NCCN(C)C)c3c(=O)c4ccccc4n1c23                GI50    1.53 µM (inactive)
24  COc1ccc2c3c(n(Cc4ccccc4)c(=O)c2c1)-c1cc(OC)c(OC)cc1C3C (stereo not drawn)                GI50    57.7 µM (inactive)
25  CC(=O)NNc1nc(C)c(C(/C=C/c2ccc(Cl)cc2)=N/NC(=S)NN)s1                GI50   > 100 µM (inactive)
26                       O=C1C=Cc2ncccc2C1=O                GI50      31 µM (inactive)
27  COC(=O)/C=C(\C)CCC1SC1(C)C (stereo not drawn)                GI50   > 100 µM (inactive)
28                    CCOCCOc1ccc(OCCOCC)cc1                GI50  > 42.7 µM (inactive)
29  O=C(NCCCCCCNC(=O)c1cccc2ccccc12)c1cccc2ccccc12                GI50    5.42 µM (inactive)
30  CC(=O)Oc1cc(OC(C)=O)c2c(=O)c3ccccc3n(C)c2c1                GI50    31.6 µM (inactive)
31          CN1CCC(CN2c3ccccc3Sc3ccccc32)CC1                GI50    15.8 µM (inactive)
32  Clc1ccccc1C1=NN(c2ccccc2)C2c3ccccc3OCC12 (stereo not drawn)                GI50   > 100 µM (inactive)
